Target: T1, Human CD19-his protein (human, UniProt P15391 20-291)
T1 construct: bought protein; also called recombinant human CD19-His; CD19 full-length protein; not shown: His tag
T1 sequence (looked up): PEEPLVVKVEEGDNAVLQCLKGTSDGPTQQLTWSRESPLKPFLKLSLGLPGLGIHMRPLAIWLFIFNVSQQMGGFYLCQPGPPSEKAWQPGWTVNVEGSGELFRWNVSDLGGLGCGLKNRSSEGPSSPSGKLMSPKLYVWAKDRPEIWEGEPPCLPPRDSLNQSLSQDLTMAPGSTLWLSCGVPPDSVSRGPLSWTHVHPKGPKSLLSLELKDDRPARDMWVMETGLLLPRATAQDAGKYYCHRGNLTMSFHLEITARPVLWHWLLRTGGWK
Test: SPR Biacore, method of example 7.1, human CD19-His
Endpoint: Kd (nM)
Note: unit nM is implicit; provide only the numeric part.

F3.121.4 (antibody, human IgG1, V domains shown, human-murine chimeric antibody, human IgG1 constant; also called chimeric antibody F3.121.4) VH: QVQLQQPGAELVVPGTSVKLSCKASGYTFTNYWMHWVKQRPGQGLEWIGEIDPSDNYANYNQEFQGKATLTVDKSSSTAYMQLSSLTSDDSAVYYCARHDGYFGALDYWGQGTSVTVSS VL: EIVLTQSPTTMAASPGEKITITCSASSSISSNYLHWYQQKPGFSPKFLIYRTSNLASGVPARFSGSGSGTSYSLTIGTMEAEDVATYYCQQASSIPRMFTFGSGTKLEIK
1.15

Q. Return reported Kd; argument: F3.121.4-L2H2 (antibody, mouse IgG1, kappa, V domains shown, humanized antibody of F3.121.4, VL2+VH2, murine IgG1 constant regions) VH: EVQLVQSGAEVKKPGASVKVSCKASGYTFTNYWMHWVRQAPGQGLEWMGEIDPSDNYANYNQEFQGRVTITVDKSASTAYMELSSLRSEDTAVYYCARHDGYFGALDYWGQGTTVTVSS VL: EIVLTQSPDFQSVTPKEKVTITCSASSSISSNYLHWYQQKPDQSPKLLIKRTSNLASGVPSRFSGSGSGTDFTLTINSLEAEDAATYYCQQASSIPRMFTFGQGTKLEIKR
A. 1.46

Q. Next up: F3.121.4-L1H1 (antibody, mouse IgG1, kappa, V domains shown, humanized antibody of F3.121.4, VL1+VH1, murine IgG1 constant regions) VH: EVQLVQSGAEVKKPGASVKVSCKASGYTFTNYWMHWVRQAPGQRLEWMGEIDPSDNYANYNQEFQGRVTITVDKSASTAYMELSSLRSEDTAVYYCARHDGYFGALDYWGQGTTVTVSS VL: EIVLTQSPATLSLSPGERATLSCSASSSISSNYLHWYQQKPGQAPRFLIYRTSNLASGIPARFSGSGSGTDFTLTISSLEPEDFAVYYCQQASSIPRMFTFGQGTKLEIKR
A. 0.0284

FYI, the data here is from patent US20250042994A1.
